System: SW-620 colon
Experiment: NCI-60 one-dose screen, 48 h (100 = growth as untreated, 0 = no growth, -100 = all killed)
Details: 10 µM unless noted
The panel holds about 83,000 compounds, 20% with a hit somewhere; the sample as a whole holds those more often.
The label fulfilled is reserved for growth strictly under 20%; not fulfilled covers values equal to or above it.

Sample answers from the record:
CC(=O)c1ccc2c3c(n(C)c2c1)CCCC3
not fulfilled
CC/C(=C\c1ccc(N(C)C)cc1)c1nc2ccccc2c(=O)[nH]1
not fulfilled
N#Cc1ccc(NC(=O)Nc2ccc(Oc3ccc(NC(=O)Nc4ccc(C#N)cc4)cc3)cc2)cc1
fulfilled
COc1cc2c(cc1OCCCOc1ccc(-c3cc4ccccc4c4ccccc34)cc1)N=C[C@@H]1CCCN1C2=O
fulfilled
Cc1nc(N)[nH]c(=O)c1C
not fulfilled
COc1cc(C2C=C(c3ccc(C)cc3)Nc3nc(SC)[nH]c(=O)c32)ccc1Oc1ccnc2cc(Cl)ccc12 (stereo unspecified)
not fulfilled

Hello, I'm reviewing records and need to know if growth of COc1cc(/C=C/C(=O)c2c(-c3ccc(F)cc3)nc3sc(C)nn23)cc(OC)c1OC is below 20%. Could you check?
fulfilled

Hello, I'm reviewing records and need to know if growth of OC(c1cc(C(F)(F)F)nc2c(C(F)(F)F)cccc12)C1CCCCN1 (stereo unspecified) is below 20%. Could you check?
not fulfilled

Hello, I'm reviewing records and need to know if growth of c1ccc(-n2nnnc2-c2cccc3ccccc23)cc1 is below 20%. Could you check?
not fulfilled

Hello, I'm reviewing records and need to know if growth of Cc1cc(C)c2c(c1)N1OC(C2)C[C@H]1/C=C/c1ccccc1 (stereo partly specified) is below 20%. Could you check?
not fulfilled

Hello, I'm reviewing records and need to know if growth of Cc1cc([N+](=O)[O-])c(C)cc1C(=O)O is below 20%. Could you check?
not fulfilled

Hello, I'm reviewing records and need to know if growth of O=C(/C(=C/c1ccc([N+](=O)[O-])cc1)c1ccccc1)c1ccccc1 is below 20%. Could you check?
fulfilled

Hello, I'm reviewing records and need to know if growth of C/C(=C\CCc1ccsc1)CC/C=C(\C)CCCN1CCN(CCO)CC1 is below 20%. Could you check?
fulfilled

Hello, I'm reviewing records and need to know if growth of OC(Cc1cccnc1)c1ccccc1 (stereo unspecified) is below 20%. Could you check?
not fulfilled

Hello, I'm reviewing records and need to know if growth of O=C(Nc1ccc(Cl)cc1)Nc1ccc(Oc2nncc3ccccc23)cc1 is below 20%. Could you check?
fulfilled

Hello, I'm reviewing records and need to know if growth of COc1cc(/C=C/C(=O)Nc2cccnc2Nc2cc(OC)c(OC)c(OC)c2)cc(OC)c1OC is below 20%. Could you check?
not fulfilled
